- System: AR 1.0 cells
- ASSAY_SUMMARY: Potentiation index with doxorubicin titration
- Format: cell-based, mouse
- CONDITION_PARAMETERS: Table C1, RMA 50 nM
Kindly state Potentiation Index at RMA concentration 50 nM for each of the entries shown.
Give bare numbers.

# example entries with known answers
- STRUCTURE: "COc1cc2c(cc1OC)CN(CCc1ccc(NC(=O)c3ccccc3NC(=O)c3csc(C)n3)cc1)CC2"
  ASSAYED_SYSTEM: "AR 1.0 cells"
  VALUE: 2
- STRUCTURE: "COc1cc2c(cc1OC)CN(CCc1ccc(NC(=O)c3ccccc3NC(=O)c3cnc4ccccc4c3)c(C)c1)CC2"
  ASSAYED_SYSTEM: "AR 1.0 cells"
  VALUE: 14
- STRUCTURE: "COc1cc2c(cc1OC)CN(CCc1cccc(NC(=O)c3ccccc3NC(=O)c3cnc4ccccc4c3)c1)CC2"
  ASSAYED_SYSTEM: "AR 1.0 cells"
  VALUE: 3.4
- STRUCTURE: "COc1ccc(CN(C)CCc2ccc(NC(=O)c3ccccc3NC(=O)c3cnc4ccccc4c3)cc2)cc1O"
  ASSAYED_SYSTEM: "AR 1.0 cells"
  VALUE: 1
- STRUCTURE: "COc1cc2c(cc1OC)CN(CCc1ccc(NC(=O)c3cc(N(C)C)ccc3NC(=O)c3cnc4ccccc4c3)cc1)CC2"
  ASSAYED_SYSTEM: "AR 1.0 cells"
  VALUE: 2.99

Dear colleague, could you send me Potentiation Index at RMA concentration 50 nM for each of the items below? Thanks.
1. COc1cc2c(cc1OC)CN(CCc1ccc(NC(=O)c3c(C)csc3NC(=O)c3cnc4ccccc4n3)cc1)CC2
2. CN(CCc1ccc(NC(=O)c2ccccc2NC(=O)c2cnc3ccccc3c2)cc1)Cc1ccc(F)c(F)c1
3. COc1cc2c(cc1OC)CN(CCc1ccc(NC(=O)c3cscc3NC(=O)c3ccc(C)nc3)cc1)CC2
4. COc1ccc(CN(C)CCc2ccc(NC(=O)c3ccc(Cl)cc3NC(=O)c3cnc4ccccc4c3)cc2)cc1OC

OUTPUT:
118
2.4
15
74

Quick batch: Potentiation Index at RMA concentration 50 nM for everything below.
1. COc1cc2c(cc1OC)CN(CCc1ccc(NC(=O)c3nccnc3NC(=O)c3cnc4ccccc4c3)cc1)CC2
2. COc1cc2c(cc1OC)CN(CCc1ccc(NC(=O)c3sccc3NC(=O)c3cnc4ccccc4n3)cc1)CC2
3. COc1cc2c(cc1OC)CN(CCc1ccc(NC(=O)c3c(C)csc3NC(=O)c3cnc4ccccc4c3)cc1)CC2
4. COc1ccc(CCN(C)CCc2ccc(NC(=O)c3ccccc3NC(=O)c3cnc4ccccc4c3)cc2)cc1OC
5. COc1ccc(CN(C)Cc2ccc(NC(=O)c3ccccc3NC(=O)c3cccnc3)cc2)cc1OC(C)C
6. COc1cc(CN(C)CCc2ccc(NC(=O)c3ccccc3NC(=O)c3cnc4ccccc4c3)cc2)cc(OC)c1OC

OUTPUT:
1: 46; 2: 551; 3: 19; 4: 6; 5: 71; 6: 4.6

Batch: Potentiation Index at RMA concentration 50 nM for all items listed.
1. COc1ccc(CN(C)Cc2ccc(NC(=O)c3ccccc3NC(=O)c3cnc4ccccc4c3)cc2)cc1OC(C)C
2. CN(CCc1ccc(NC(=O)c2ccccc2NC(=O)c2cnc3ccccc3c2)cc1)Cc1ccc2c(c1)OCCO2

OUTPUT:
[1.8, 2.1]
